System: Micrococcus luteus
assay-name: Antibacterial activity against Micrococcus luteus ATCC 4698 after 24 hrs by two fold serial dilution method
Type: functional
condition-parameters: NCTC 2665, 24 h
Mark Condition met for MIC under 60 µg/mL, Condition not met if at or over.

molecule=Nc1ncc(-c2cn(Cc3cccc(F)c3)c3c(F)cc(F)cc3c2=O)s1 group_label="Condition not met"
molecule="CCn1cc(C(=O)O)c(=O)c2cc(F)c(N3CCNCC3)cc21 [NORFLOXACIN]" group_label="Condition met"
molecule=Nc1ncc(-c2cn(Cc3ccc(Cl)cc3)c3c(F)cc(F)cc3c2=O)s1 group_label="Condition not met"
molecule=CCCCCCCCCCCCn1cc(-c2cnc(N)s2)c(=O)c2cc(F)cc(F)c21 group_label="Condition not met"
molecule=Nc1ncc(-c2cn(Cc3ccccc3F)c3c(F)cc(F)cc3c2=O)s1 group_label="Condition not met"
molecule=CCCCCn1cc(-c2cnc(N)s2)c(=O)c2cc(F)cc(F)c21 group_label="Condition not met"
molecule=CCCn1cc(-c2cnc(N)s2)c(=O)c2cc(F)cc(F)c21 group_label="Condition met"
molecule=Nc1ncc(-c2cn(Cc3ccc(F)cc3)c3c(F)cc(F)cc3c2=O)s1 group_label="Condition met"
molecule="O=C(N[C@H](CO)[C@H](O)c1ccc([N+](=O)[O-])cc1)C(Cl)Cl [CHLORAMPHENICOL]" group_label="Condition met"
molecule=Nc1ncc(-c2cn(Cc3ccc([N+](=O)[O-])cc3)c3c(F)cc(F)cc3c2=O)s1 group_label="Condition not met"
